target: RPS6KA3 KD1 KD2 (human); assay: radiometric filter-binding kinase assay; details: compound 1.0 µM
Lab note - cut at 90% for residual activity: Satisfied if strictly below, Not satisfied if not.

molecule	category
COc1cc(O)c2c(c1)[C@H]1OC1C[C@H](O)[C@H](O)C(=O)/C=C\C[C@H](C)OC2=O (stereo partly drawn)	Not satisfied
Cc1ccc(=O)n(-c2ccccc2)c1	Not satisfied
Cc1nc(-c2ccc(OCC(C)C)c(C#N)c2)sc1C(=O)O	Not satisfied
N#Cc1c(C2CCNCC2)cc(-c2c(O)cccc2OCC2CC2)nc1N	Satisfied
NC(=O)c1cc2c(-c3cccc(-c4ccccc4)c3)cnc(N)c2s1	Satisfied
CC1=C(CO)C(=O)O[C@@H]([C@@H](C)[C@H]2CC[C@H]3[C@@H]4C[C@H]5O[C@]56[C@@H](O)C=CC(=O)[C@]6(C)C4CC[C@]23C)C1 (stereo partly drawn)	Not satisfied
CCNc1nc(Nc2cc(F)c(C(=O)N3CCOCC3)cc2OC)ncc1C(F)(F)F	Satisfied

Data origin: the kinase profiling compilation of Christmann-Franck et al. (2016)
